Cited source for all entries: patent US20240226103A1

Assay: Equilibrium solubility in aqueous media at different pH and in biorelevant media (UPLC-UV-MS)
Type: physicochemical
Details: acetate buffer, pH 5, aqueous buffer, thermodynamic from solid, Acetate Buffer pH 5, room temperature, read-out: Equilibrium solubility Conc.
endpoint.name: solubility thermodynamic at 24 h (µg/mL)

* C=CC(=O)NC1CCN(c2ncc3ncnc(Nc4ccc(Oc5ccc6c(c5)ncn6C)c(C)c4)c3n2)CC1 [compound (1) Form III] | 0.126

----------
Experiment: Equilibrium solubility in aqueous media at different pH and in biorelevant media (UPLC-UV-MS)
Format: physicochemical
Conditions: HCl 0.01N, pH 2, simulated gastric fluid, thermodynamic from solid, HCl 0.01N pH 2, room temperature, read-out: Equilibrium solubility Conc.
endpoint.name: solubility thermodynamic at 24 h (µg/mL)

• C=CC(=O)NC1CCN(c2ncc3ncnc(Nc4ccc(Oc5ccc6c(c5)ncn6C)c(C)c4)c3n2)CC1 [compound (1) Form III] = 1320

----------
Assay: Equilibrium solubility in aqueous media at different pH and in biorelevant media (UPLC-UV-MS)
Type: physicochemical
Conditions: FeSSIF, 37 °C, pH 5, fessif, thermodynamic from solid, FeSSIF pH 5.0, 37° C., read-out: Equilibrium solubility Conc.
endpoint.name: solubility thermodynamic at 24 h (µg/mL)

• C=CC(=O)NC1CCN(c2ncc3ncnc(Nc4ccc(Oc5ccc6c(c5)ncn6C)c(C)c4)c3n2)CC1 [compound (1) Form III] = 49

----------
Experiment: Equilibrium solubility in aqueous media at different pH and in biorelevant media (UPLC-UV-MS)
Format: physicochemical
Conditions: phosphate buffer, pH 6.8, aqueous buffer, thermodynamic from solid, Phosphate Buffer pH 6.8, room temperature, read-out: Equilibrium solubility Conc.
endpoint.name: solubility thermodynamic at 24 h (µg/mL)

* C=CC(=O)NC1CCN(c2ncc3ncnc(Nc4ccc(Oc5ccc6c(c5)ncn6C)c(C)c4)c3n2)CC1 [compound (1) Form III] | 0.025
